Overview of reported IC50 across a group of compounds:
Experiment: Growth inhibition of mouse Hepa-1c1c7 cells by crystal violet staining
Assay type: cell-based
Conditions: Mus musculus, Hepa-1c1c7

Molecule smiles	Comparator	IC50 / nM
CC1=C(C)[C@]2(OC1=O)[C@H](O)[C@@H](C)[C@]1(O)CC[C@H]3[C@@H]4CC=C5CC=CC(=O)[C@]5(C)[C@H]4C[C@@]2(O)[C@@]31C	>	42700
CC1=C(C)C(=O)O[C@@H]([C@](C)(O)[C@H]2CC[C@H]3[C@@H]4[C@@H](O)C=C5[C@@H](O)C=CC(=O)[C@]5(C)[C@H]4CC[C@]23C)C1	=	1660
CC(=O)O[C@H]1C=CC(=O)[C@@]2(C)C1=C[C@H](OC(C)=O)[C@@H]1[C@@H]2CC[C@]2(C)[C@@H]([C@@](C)(O)[C@H]3CC(C)=C(C)C(=O)O3)CC[C@@H]12	=	810
CC1=C(CO)C(=O)O[C@@H]([C@@H](C)[C@H]2CC[C@H]3[C@@H]4C[C@@H](O)[C@@]5(O)CC=CC(=O)[C@]5(C)[C@H]4CC[C@]23C)C1	>	42300
CO[C@H]1O[C@@](C)([C@H]2CC(C)=C(C)C(=O)O2)[C@H]2CC[C@H]3[C@@H]4CC=C5C(=O)C=CC(=O)[C@]5(C)[C@H]4CC[C@]123	=	650
CC1=C(C)[C@]2(OC1=O)C(=O)C(C)=C1CC[C@H]3[C@@H]4C[C@H]5O[C@]56CC=CC(=O)[C@]6(C)[C@H]4C[C@@]2(O)[C@]13C	=	8080
CC(=O)O[C@H]1C=CC(=O)[C@]2(C)[C@H]3CC[C@]45C(=O)O[C@@](C)([C@H]6C[C@H](C)[C@@H](C)C(=O)O6)[C@H]4CC[C@H]5[C@@H]3C[C@H]3O[C@]132	=	420
CC1=C(C)C(=O)O[C@@H]([C@]2(C)OC(=O)[C@]34CC[C@H]5[C@@H](CC=C6[C@@H](O)C=CC(=O)[C@@]65C)[C@@H]3CC[C@H]24)C1	=	11000
CC(=O)O[C@@H]1[C@H]2[C@@H]3CC[C@H]([C@@](C)(O)[C@H]4CC(C)=C(C)C(=O)O4)[C@@]3(C)CC[C@@H]2[C@@]2(C)C(=O)C=C[C@H](OC(C)=O)[C@]23O[C@H]13	=	330
CC1=C(C)[C@]2(OC1=O)[C@H](O)[C@@H](C)[C@]1(O)CC[C@H]3[C@@H]4C[C@@H](O)[C@@]5(Cl)CC=CC(=O)[C@]5(C)[C@H]4C[C@@]2(O)[C@@]31C	>	38000

* * *

Test: Chemoprevention index, ratio of IC50 for mouse Hepa-1c1c7 cells to drug level required to double specific quinone reductase activity in mouse Hepa-1c1c7 cells
Format: functional
Overview of reported Ratio across a group of compounds:
Endpoint name: Ratio

Compound	Endpoint value
CC(=O)O[C@H]1C=CC(=O)[C@@]2(C)C1=C[C@H](OC(C)=O)[C@@H]1[C@@H]2CC[C@]2(C)[C@@H]([C@@](C)(O)[C@H]3CC(C)=C(C)C(=O)O3)CC[C@@H]12	>3
CC(=O)O[C@H]1C=CC(=O)[C@]2(C)[C@H]3CC[C@]45C(=O)O[C@@](C)([C@H]6CC(C)=C(C)C(=O)O6)[C@H]4CC[C@H]5[C@@H]3C[C@H]3O[C@]132	>2
CC1=C(C)C(=O)O[C@@H](/C(C)=C2\[C@@H](O)C[C@H]3[C@@H]4[C@@H]5O[C@@H]5[C@@]5(O)CC=CC(=O)[C@]5(C)[C@H]4CC[C@]23C)C1 [EXODECONOLIDE A]	>2.7
